- target.or.test.system: PI3Kδ (Homo sapiens, UniProt O00329)
- Sequence (O00329 1-1044): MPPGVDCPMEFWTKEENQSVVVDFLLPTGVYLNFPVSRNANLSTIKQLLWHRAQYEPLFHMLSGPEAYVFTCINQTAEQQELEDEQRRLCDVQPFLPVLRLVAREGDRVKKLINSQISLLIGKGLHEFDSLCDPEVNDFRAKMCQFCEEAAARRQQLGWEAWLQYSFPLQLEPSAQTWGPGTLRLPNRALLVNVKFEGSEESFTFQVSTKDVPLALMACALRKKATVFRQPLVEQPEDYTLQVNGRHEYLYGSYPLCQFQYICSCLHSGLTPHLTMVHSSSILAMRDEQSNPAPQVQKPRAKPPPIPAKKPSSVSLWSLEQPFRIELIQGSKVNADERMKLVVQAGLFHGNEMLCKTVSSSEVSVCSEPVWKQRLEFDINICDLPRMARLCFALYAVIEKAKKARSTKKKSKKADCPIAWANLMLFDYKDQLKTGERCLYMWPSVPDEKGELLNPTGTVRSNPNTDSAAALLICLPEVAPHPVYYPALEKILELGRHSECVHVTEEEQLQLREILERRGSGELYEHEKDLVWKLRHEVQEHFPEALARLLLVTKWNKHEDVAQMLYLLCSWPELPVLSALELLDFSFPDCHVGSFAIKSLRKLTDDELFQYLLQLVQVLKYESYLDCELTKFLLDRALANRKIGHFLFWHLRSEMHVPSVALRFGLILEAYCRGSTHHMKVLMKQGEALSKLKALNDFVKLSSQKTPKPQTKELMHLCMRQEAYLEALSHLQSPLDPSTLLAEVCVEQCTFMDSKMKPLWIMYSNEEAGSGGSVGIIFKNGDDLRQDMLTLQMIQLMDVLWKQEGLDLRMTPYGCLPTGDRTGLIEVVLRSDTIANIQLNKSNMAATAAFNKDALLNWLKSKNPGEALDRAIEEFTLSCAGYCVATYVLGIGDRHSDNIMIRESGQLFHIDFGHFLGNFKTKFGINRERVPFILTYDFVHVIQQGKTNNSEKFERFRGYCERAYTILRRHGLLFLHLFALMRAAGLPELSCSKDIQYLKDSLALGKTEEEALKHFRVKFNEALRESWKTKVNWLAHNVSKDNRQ
Kindly supply the reported Kd values for the records listed here.
Give bare numbers, in nM.

molecule="O=Cc1cc(C2CCCN2c2cc(F)cc(F)c2)c2nc(N3CCOCC3)cnc2c1 (stereo not shown)" parameter=Kd unit_abbreviation=nM recorded_value=219
molecule="CN[C@H]1CCN(C(=O)c2cc(C(C)Oc3ccc(F)c(F)c3)c3nc(N4CCOCC4)cnc3c2)C1 (single isomer, unassigned) [Compound 370b]" parameter=Kd unit_abbreviation=nM recorded_value=15500

Please go through the list and note Kd for each molecule.
1. CC(Nc1cc(F)cc(F)c1)c1cc(C(=O)NCCOCCN)cc2ncc(N3CCOCC3)nc12 (stereo not shown)
2. OC(CN1CCC1)c1cc(C2CCCN2c2cc(F)cc(F)c2)c2nc(N3CCOCC3)cnc2c1 (single isomer, unassigned)
3. C[C@H](CO)NCc1ccc(F)cc1N1CCCC1c1cc(C(=O)N(C)C)cc2ncc(N3CCOCC3)nc12 (mixture of isomers)
4. CC(Nc1ccc(F)c(F)c1)c1cc(C(=O)N2CCN3CCC[C@@H]3C2)cc2ncc(N3CCOCC3)nc12 (stereo partly shown) [Compound 347]
5. CC(Nc1ccc(F)c(F)c1)c1cc(C(=O)N(C)CCN(C)C)cc2ncc(N3CCOCC3)nc12 (single isomer, unassigned) [Compound 349a]

398
29
617
407
36
